- System: Plasmodium berghei
- test-summary: Luciferase/luciferin-expressing antifolate-resistant parasites were used to infect a culture of HepG2 cells that were pre-incubated with compounds. Infected hepatocytes emit light due to the luciferase reaction. Assay results are presented as the percent inhibition of light emission compared to control. […]
- Type: functional
- condition-summary: sporozoite, PBLUC_HILL_SLOPE 0.428, PBLUC_R_SQUARED 0.727, read-out: LUCIFERASE INFECTION ASSAY - IC50
assay-metric: pIC50
Scale note: pIC50 = -log10(concentration in M).

The reported pIC50 value, Plasmodium berghei, for CN(C)CCCOc1ccc(-c2ccc(C(C)(C)C)cc2)cn1 reads 7.07

----------
- System: Plasmodium berghei
- test-summary: Luciferase/luciferin-expressing antifolate-resistant parasites were used to infect a culture of HepG2 cells that were pre-incubated with compounds. Infected hepatocytes emit light due to the luciferase reaction. Assay results are presented as the percent inhibition of light emission compared to control. […]
- Assay type: functional
- condition-summary: sporozoite, HEPG2TOX_HILL_SLOPE 1.77, HEPG2TOX_R_SQUARED 0.986, PBLUC_HILL_SLOPE 2.11, PBLUC_R_SQUARED 0.835, read-out: LUCIFERASE INFECTION ASSAY - IC50
assay-metric: IC50

The molecule CC(C)c1noc(CN2CCN(c3ncnc4sc(-c5ccccc5)cc34)CC2)n1 showed IC50 equal to 2370 nM

----------
- Test system: Plasmodium berghei
- test-summary: Luciferase/luciferin-expressing antifolate-resistant parasites were used to infect a culture of HepG2 cells that were pre-incubated with compounds. Infected hepatocytes emit light due to the luciferase reaction. Assay results are presented as the percent inhibition of light emission compared to control. […]
- Assay type: functional
- condition-summary: sporozoite, PBLUC_HILL_SLOPE 9.4, PBLUC_R_SQUARED 0.433, read-out: LUCIFERASE INFECTION ASSAY - IC50
assay-metric: IC50

Documented IC50 of Cc1oc(-c2cccs2)nc1CC(=O)NNC(=O)CC12CC3CC(CC(C3)C1)C2 : 3.62 µM

----------
- System: Plasmodium berghei
- test-summary: Luciferase/luciferin-expressing antifolate-resistant parasites were used to infect a culture of HepG2 cells that were pre-incubated with compounds. Infected hepatocytes emit light due to the luciferase reaction. Assay results are presented as the percent inhibition of light emission compared to control. […]
- Format: functional
- condition-summary: sporozoite, PBLUC_HILL_SLOPE 16.4, 0.310, PBLUC_R_SQUARED 0.161, 0.532, read-out: LUCIFERASE INFECTION ASSAY - IC50
assay-metric: pIC50
Lab note — pIC50 values are minus log10 of concentrations in M.

The compound listed as O=C1c2ccccc2C(=Cc2ccsc2)c2ccccc21 shows pIC50 equal to 5.31

----------
- System: Plasmodium berghei
- test-summary: Luciferase/luciferin-expressing antifolate-resistant parasites were used to infect a culture of HepG2 cells that were pre-incubated with compounds. Infected hepatocytes emit light due to the luciferase reaction. Assay results are presented as the percent inhibition of light emission compared to control. […]
- Format: functional
- condition-summary: sporozoite, HEPG2TOX_HILL_SLOPE 2.61, HEPG2TOX_R_SQUARED 0.965, PBLUC_HILL_SLOPE 1.24, PBLUC_R_SQUARED 0.535, read-out: LUCIFERASE INFECTION ASSAY - IC50
assay-metric: pIC50
Just so you know, pIC50 here is -log10 of the concentration in molar units; reply with that number alone.

Observed pIC50 on Plasmodium berghei, entry O=C(C1=NNCC1c1ccccc1)c1cc2ccccc2c2ccccc12 (stereo unspecified) , equals 5.50

----------
- Tested on: Plasmodium berghei
- test-summary: Luciferase/luciferin-expressing antifolate-resistant parasites were used to infect a culture of HepG2 cells that were pre-incubated with compounds. Infected hepatocytes emit light due to the luciferase reaction. Assay results are presented as the percent inhibition of light emission compared to control. […]
- Type: functional
- condition-summary: sporozoite, HEPG2TOX_HILL_SLOPE 6.43, HEPG2TOX_R_SQUARED 0.426, PBLUC_HILL_SLOPE 13.5, PBLUC_R_SQUARED 0.624, read-out: LUCIFERASE INFECTION ASSAY - IC50
assay-metric: IC50

Field IC50 (Plasmodium berghei), entry O=C(NNC(=S)NC(=O)c1cn(-c2ccccc2)nc1-c1ccc(Br)cc1)c1ccncc1 : 2960 nM

----------
- System: Plasmodium berghei
- test-summary: Luciferase/luciferin-expressing antifolate-resistant parasites were used to infect a culture of HepG2 cells that were pre-incubated with compounds. Infected hepatocytes emit light due to the luciferase reaction. Assay results are presented as the percent inhibition of light emission compared to control. […]
- Format: functional
- condition-summary: sporozoite, HEPG2TOX_HILL_SLOPE 0.197, HEPG2TOX_R_SQUARED 0.782, PBLUC_HILL_SLOPE 7.81, PBLUC_R_SQUARED 0.726, read-out: LUCIFERASE INFECTION ASSAY - IC50
assay-metric: pIC50
pIC50 here: minus log base 10 of the concentration, concentration in moles per litre.

GET /value?item= CC(C)(C)c1ccc(-c2cnc3cnc(-c4ccncc4)cn23)cc1 &field=pIC50 returns 5.44

----------
- System: Plasmodium berghei
- test-summary: Luciferase/luciferin-expressing antifolate-resistant parasites were used to infect a culture of HepG2 cells that were pre-incubated with compounds. Infected hepatocytes emit light due to the luciferase reaction. Assay results are presented as the percent inhibition of light emission compared to control. […]
- Format: functional
- condition-summary: sporozoite, HEPG2TOX_HILL_SLOPE 2.93, HEPG2TOX_R_SQUARED 0.885, PBLUC_HILL_SLOPE 3.51, PBLUC_R_SQUARED 0.62, read-out: LUCIFERASE INFECTION ASSAY - IC50
assay-metric: IC50 (µM)
Form entry: value (µM) — number only.

The recorded IC50 for entry CN(C)CCNc1cc(-c2ccco2)nc2ccccc12 equals 4.91

----------
- Test system: Plasmodium berghei
- test-summary: Luciferase/luciferin-expressing antifolate-resistant parasites were used to infect a culture of HepG2 cells that were pre-incubated with compounds. Infected hepatocytes emit light due to the luciferase reaction. Assay results are presented as the percent inhibition of light emission compared to control. […]
- Format: functional
- condition-summary: sporozoite, HEPG2TOX_HILL_SLOPE 8.7, HEPG2TOX_R_SQUARED 0.948, PBLUC_HILL_SLOPE 3.38, PBLUC_R_SQUARED 0.62, read-out: LUCIFERASE INFECTION ASSAY - IC50
assay-metric: IC50 (nM)
Answer format: numeric, nM implied, no suffix.

IC50 recorded for this compound, COc1ccccc1-c1cnn2ccc(Nc3ccccc3)nc12 , is 1120

----------
- Test system: Plasmodium berghei
- test-summary: Luciferase/luciferin-expressing antifolate-resistant parasites were used to infect a culture of HepG2 cells that were pre-incubated with compounds. Infected hepatocytes emit light due to the luciferase reaction. Assay results are presented as the percent inhibition of light emission compared to control. […]
- Assay type: functional
- condition-summary: sporozoite, PBLUC_HILL_SLOPE 9.35, PBLUC_R_SQUARED 0.116, read-out: LUCIFERASE INFECTION ASSAY - IC50
pIC50: −log10 of the molar value.
assay-metric: pIC50

Looking up CSc1sc(C#N)c(C)c1-c1ccon1 , I found its pIC50 recorded as < 4.85

----------
- System: Plasmodium berghei
- test-summary: Luciferase/luciferin-expressing antifolate-resistant parasites were used to infect a culture of HepG2 cells that were pre-incubated with compounds. Infected hepatocytes emit light due to the luciferase reaction. Assay results are presented as the percent inhibition of light emission compared to control. […]
- Assay type: functional
- condition-summary: sporozoite, read-out: LUCIFERASE INFECTION ASSAY - IC90
assay-metric: IC90

Record for CC(C)(C)c1cc(C(c2ccccn2)N2CCCC2)cc(C(C)(C)C)c1O (stereo not given) under target or system Plasmodium berghei: IC90 reported as > 10 µM

Readout IC90 for COc1ccc(-c2cnc3cnc(-c4cnn(Cc5ccccc5)c4)cn23)cc1 , test system Plasmodium berghei, was > 8.65 µM

Cc1ccccc1-c1ccc(CN2CCC3(CC2)C(=O)N(C)C(=O)N3CC(C)C)cc1 on Plasmodium berghei gives IC90 = 3.99 µM

Reported Plasmodium berghei IC90 for item CCCn1c(N)c(C(=O)CSc2nc3sc(C)c(C)c3c(=O)n2-c2ccccc2)c(=O)[nH]c1=O was > 10 µM

Measured IC90 (Plasmodium berghei), entry C/C(=N\n1c(-c2cccc(Br)c2)cs/c1=N\c1ccc(Cl)cc1Cl)c1ccc2c(c1)OCO2 : > 10 µM

----------
- Tested on: Plasmodium berghei
- test-summary: Luciferase/luciferin-expressing antifolate-resistant parasites were used to infect a culture of HepG2 cells that were pre-incubated with compounds. Infected hepatocytes emit light due to the luciferase reaction. Assay results are presented as the percent inhibition of light emission compared to control. […]
- Type: functional
- condition-summary: sporozoite, PBLUC_HILL_SLOPE 11.4, PBLUC_R_SQUARED 0.492, read-out: LUCIFERASE INFECTION ASSAY - IC50
assay-metric: IC50 (µM)
Just the number in µM, nothing appended.

Field IC50 (entry COc1cc(OC)c(C2=CCN(c3cc(=O)n4ccccc4n3)CC2)c(OC)c1 ) reads 9.03

Entry source: ChEMBL document CHEMBL4483862
